hGLP1R cAMP EC50 ratio: recorded values
biological target: human GLP-1 receptor (GLP-1R) (human, UniProt P43220 24-463); assay: cell-based or functional assay; note: reference of the scale not given here
Measurement name: hGLP1R cAMP EC50 ratio

{"Binder": "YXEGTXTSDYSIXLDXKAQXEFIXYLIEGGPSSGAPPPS (Aib2, αMeF(2F)6, Aib13, Orn16, (2-[2-(2-Amino-ethoxy)-ethoxy]-acetyl)2-(γ-Glu)-CO-(CH2)18-CO2H on K17, Aib20, D-Glu24, C-terminal NH2) [Example 250]", "Result number": 0.985}
{"Binder": "YXEGTFTSDYSIXLDKKAQXAFIEYLIAGGPSSGAPPPS (Aib2, αMeL13, (2-[2-(2-Amino-ethoxy)-ethoxy]-acetyl)2-(γ-Glu)-CO-(CH2)1s-CO2H (so in the source); probably (CH2)18) on K17, Aib20, C-terminal NH2) [Example 324]", "Result number": 0.798}
{"Binder": "YXEGTFTSDYSIXLDKKAQXEFIEYLIEGGPSSGAPPPS (not fully specified; Aib2, αMeL13, (2-[2-(2-Amino-ethoxy)-ethoxy]-acetyl)2-(γ-Glu)-CO-(CH2)18-CO2H on K17, Aib20, C-terminal NH2) [Example 333]", "Result number": 0.487}
{"Binder": "XXEGTFTSDYSIXLDEKAQXEFIEYLIAGGPSSGAPPPS (not fully specified; D-Tyr1, Aib2, αMeL13, (2-[2-(2-Amino-ethoxy)-ethoxy]-acetyl)2-(γ-Glu)-CO-(CH2)18-CO2H on K17, Aib20, C-terminal NH2) [Example 342]", "Result number": 0.198}
{"Binder": "YXEGTXTSDYSILLDKKAQXEFIEYLIAGGPSSG (Aib2, αMeF6, (2-[2-(2-Amino-ethoxy)-ethoxy]-acetyl)2-(γ-Glu)-CO-(CH2)16-CO2H on K17, Aib20, C-terminal NH2) [Example 310]", "Result number": 1.43}
{"Binder": "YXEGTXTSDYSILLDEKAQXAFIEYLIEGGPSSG (Aib2, αMeF(2F)6, (2-[2-(2-Amino-ethoxy)-ethoxy]-acetyl)2-(γ-Glu)-CO-(CH2)16-CO2H on K17, Aib20, C-terminal NH2) [Example 311]", "Result number": 1.04}
{"Binder": "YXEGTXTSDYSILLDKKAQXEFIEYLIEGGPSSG (Aib2, αMeF6, (2-[2-(2-Amino-ethoxy)-ethoxy]-acetyl)2-(γ-Glu)-CO-(CH2)16-CO2H on K17, Aib20, C-terminal NH2) [Example 308]", "Result number": 1.45}
{"Binder": "XXEGTFTSDYSIXLDKKAQXAFIXYLIAGGPSSGAPPPS (D-Tyr1, Aib2, αMeL13, (2-[2-(2-Amino-ethoxy)-ethoxy]-acetyl)2-(γ-Glu)-CO-(CH2)18-CO2H on K17, Aib20, D-Glu24, C-terminal NH2) [Example 352]", "Result number": 0.201}
{"Binder": "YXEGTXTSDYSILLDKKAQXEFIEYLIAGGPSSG (Aib2, αMeF(2F)6, (2-[2-(2-Amino-ethoxy)-ethoxy]-acetyl)2-(γ-Glu)-CO-(CH2)16-CO2H on K17, Aib20, C-terminal NH2) [Example 314]", "Result number": 1.48}
{"Binder": "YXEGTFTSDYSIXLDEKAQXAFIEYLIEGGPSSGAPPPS (Aib2, αMeL13, (2-[2-(2-Amino-ethoxy)-ethoxy]-acetyl)2-(γ-Glu)-CO-(CH2)16-CO2H on K17, Aib20, C-terminal NH2) [Example 323]", "Result number": 1.32}
{"Binder": "YXEGTFTSDYSILLDKKAQEAFIEYLIEGGPSSGAPPPS (Aib2, (2-[2-(2-Amino-ethoxy)-ethoxy]-acetyl)2-(γ-Glu)-CO-(CH2)18-CO2H on K17, C-terminal NH2) [Example 261]", "Result number": 0.75}
{"Binder": "YXEGTFTSDYSILLDKKAQSAFIEYLIEGGPSSGAPPPS (Aib2, (2-[2-(2-Amino-ethoxy)-ethoxy]-acetyl)2-(γ-Glu)-CO-(CH2)18-CO2H on K17, C-terminal NH2) [Example 263]", "Result number": 0.906}
{"Binder": "YXEGTFTSDYSIXLDEKAQXEFIEYLIAGGPSSGAPPPS (Aib2, αMeL13, (2-[2-(2-Amino-ethoxy)-ethoxy]-acetyl)2-(γ-Glu)-CO-(CH2)18-CO2H on K17, Aib20, C-terminal NH2) [Example 331]", "Result number": 0.808}
